Exercise: state measured growth for each of the compounds provided.
Tested on: COLO 205 colon
MEASUREMENT_DESCRIPTION: NCI-60 one-dose screen, 48 h (100 = growth as untreated, 0 = no growth, -100 = all killed)
RECORDED_CONDITIONS: 10 µM unless noted
This is part of a sample that, as a whole, favours compounds with a hit. Of some 83,000 tested, about 20% had one in any assay. Calls of active or inactive are those of the source. How the source made its calls: active means growth percent below 10; inactive means the rest.

CCOC(=O)C1=C(C)C(Cl)=N/C1=C\c1[nH]c(Cl)c(C)c1C(=O)OCC: 107% (inactive)
COc1ccc(C(=O)/C=C/c2ccc(N3CCCCC3)cc2)cc1OC: 100% (inactive)
C=CCn1c(SCC(=O)Nc2ccc(/C(C)=N/O)cc2)nnc1-c1cc(-c2ccc(S(N)(=O)=O)cc2)nc2ccccc12: 94.2% (inactive)
COc1ccc(/C=C/c2ccc3ccccc3n2)c(OC)c1: 85.9% (inactive)
COc1ccc(Nc2ncccc2/C=C/C(=O)c2cc(OC)c(OC)c(OC)c2)cc1: -77% (active)
C#CCOc1cccc(-c2ncnc3cc(NC(=O)C=C)ccc23)c1: 24.4% (inactive)
CCN1C(=O)N(CC)C2C1NN=c1s/c(=C\c3ccc[nH]3)c(=O)n12 (centres undefined): 4.65% (active)
C=C(CNCCc1ccc(O)cc1)[C@@H]1CC[C@]2(CO)CC[C@]3(C)[C@H](CC[C@@H]4[C@@]5(C)CCC(=O)C(C)(C)[C@@H]5CC[C@]43C)[C@@H]12: -55.6% (active)

From here, focus on the item given below.
Reported growth for COLO 205 colon, given CCN(CC)CCN1C(=O)c2c(c(C)c3c(oc4ccc(O)cc43)c2C)C1=O ?
83.2% (inactive)

----------
Tested on: CCRF-CEM leukemia
MEASUREMENT_DESCRIPTION: NCI-60 one-dose screen, 48 h
RECORDED_CONDITIONS: 10 µM unless noted
Description: Growth inhibition of the CCRF-CEM human tumor cell line is measured as a screen for anti-cancer activity. Cells are grown in 96 well plates and exposed to the test compound for 48 hours. Compounds are tested at a single concentration, which is 10^-5 M for most compounds. The reported endpoint is percent growth (GI% or GIPRCNT), where numbers from 0 - 100% represent growth inhibition, and numbers from -100% - 0 represent cell death. For example, a value of 40 represents 60% growth inhibition. […]
This is part of a sample that, as a whole, favours compounds with a hit. Of some 83,000 tested, about 20% had one in any assay. Active and inactive are the calls of the source. How the source made its calls: active means growth percent below 10; inactive means the rest.
Respond only with the outcome that fits, drawn from Y = active, N = inactive

COc1ccc(N2CCN(C(=O)c3sc4nc(C)c(Br)c(C)c4c3N)CC2)cc1: N
CCCCNC(=O)Oc1ccc(/C(=C(/C)Cc2ccc(OC)cc2)c2ccc(OCCN3CCCCCC3)cc2)cc1: N

Look up the recorded call for CO[C@H]1CC(=O)n2c3ccccc3c3c4c(c5c6ccccc6n1c5c32)C(=O)NC4=O in this test.
N

Same again, this time with COc1ccccc1C(=O)Nc1cccc(NC(=O)c2ccoc2C)c1
N

Same again, this time with COc1ccc(C(O)c2cc3c(N)c(C(=O)Nc4cccc(Cl)c4C)sc3nc2C)cc1 (centres undefined)
N

----------
System: UACC-62 melanoma
MEASUREMENT_DESCRIPTION: NCI-60 one-dose screen, 48 h (100 = growth as untreated, 0 = no growth, -100 = all killed)
RECORDED_CONDITIONS: 10 µM unless noted
The panel holds about 83,000 compounds, 20% with a hit somewhere; the sample as a whole holds those more often. Active and inactive are the calls of the source. Rule for the calls: active = growth percent below 10; inactive = the rest.
RESULT_TYPE: growth

Some entries whose results are on file:
C=C(C)[C@@H]1CC[C@]2(C(N)=O)CC[C@]3(C)[C@H](CC[C@@H]4[C@@]5(C)CC[C@H](OCCC#N)C(C)(C)[C@@H]5CC[C@]43C)[C@@H]12: 67.1% (inactive)
Cc1ccc(/C=C/C(=O)c2ccc(-n3cc(CN4CCN(c5cc6c(cc5F)c(=O)c(C(=O)O)cn6C5CC5)CC4)nn3)cc2)cc1: 77.6% (inactive)
CCN(CC)Cc1cc(Nc2ccnc3cc(Cl)ccc23)ccc1O: 92.7% (inactive)

From here, focus on the item given below.
Give the measured growth of COc1cc(/C=C2\CN(S(=O)(=O)c3ccccc3)C/C(=C\c3cc(CN4CCCCC4)c(O)c(OC)c3)C2=O)cc(CN2CCCCC2)c1O .
71% (inactive)

----------
Tested on: RPMI-8226 leukemia
MEASUREMENT_DESCRIPTION: NCI-60 one-dose screen, 48 h (100 = growth as untreated, 0 = no growth, -100 = all killed)
RECORDED_CONDITIONS: 10 µM unless noted
The panel holds about 83,000 compounds, 20% with a hit somewhere; the sample as a whole holds those more often.
RESULT_TYPE: growth (%)
Numbers only, in %.

Some entries whose results are on file:
Cc1ccc(C(=O)c2ccc(CC(=O)NN3C(=O)c4ccccc4C3=O)n2C)cc1: 100
N#Cc1c(Nc2ccc(N3CCOCC3)cc2)nc(SCC(=O)c2ccc(Br)cc2)nc1-c1ccccc1: 111
O=C(N/N=C\c1ccccc1S(=O)(=O)O)N/N=C/c1ccccc1S(=O)(=O)O: 94.6
O=C(Nc1ncc(Cc2cc(C(F)(F)F)ccc2Cl)s1)c1cccs1: 55.7
C=C1C(=O)O[C@H]2[C@H]1CC/C(COC(=O)c1ccc(C(=O)O)s1)=C\CC[C@@]1(C)O[C@@H]21: -25.9
O=C(CSc1nnc(-c2cc(-c3ccccc3)nc3ccccc23)n1-c1ccccc1)Nc1ccc(C(=O)/C=C/c2ccc(Cl)cc2)cc1: 66.6
CN1CCN(CCOc2ccc(-c3cnc4c(-c5ccc(F)cc5)cnn4c3)cc2)CC1: 27
COc1cc(/C=C/C(=O)/C=C(O)/C=C/c2ccc(OC(=O)C34CC5CC(CC(C5)C3)C4)c(OC)c2)ccc1OC(=O)C12CC3CC(CC(C3)C1)C2: 105

From here, focus on the item given below.
Give the measured growth of COc1ccc(/C=C2\COc3ccc(O)cc3C2=O)cc1 .
-0.495

----------
System: KM12 colon
MEASUREMENT_DESCRIPTION: NCI-60 one-dose screen, 48 h
RECORDED_CONDITIONS: 10 µM unless noted
The panel holds about 83,000 compounds, 20% with a hit somewhere; the sample as a whole holds those more often. The source made the active and inactive calls. How the source made its calls: active means growth percent below 10; inactive means the rest.
Respond only with the outcome that fits, drawn from True = active, False = inactive

These recorded examples may help you get a feel for the data.
COc1ccc(Cn2cc3c(c2-c2ccccc2)CCc2cnoc2-3)cc1: True
CN1CCN(CC(=O)Nc2ccc3ncnc(Nc4ccc(Oc5cccc(C(F)(F)F)c5)c(Cl)c4)c3c2)CC1: False
Cc1ccc(CNc2c3ccccc3nc3ccccc23)cc1: False
Cc1ccc2nc(/C(C#N)=C(/CCCO)NC(Cc3ccccc3)C(=O)OCc3ccccc3)[nH]c(=O)c2c1 (centres undefined): False
CCN1CCN(CCNc2nccc(-c3c(-c4ccc(F)c(OC)c4)nc4sccn34)n2)S1(=O)=O: False

Look up the recorded call for CCN1C(=O)N(CC)C2C1NN=c1s/c(=C3\C(=O)N(CCC(C)C)c4ccccc43)c(=O)n12 (centres undefined) in this test.
False

Same again, this time with CN1CCN(Cc2ccc(NC(=O)c3cncc(C#Cc4cnc5ccc(Cl)nn45)c3)cc2C(F)(F)F)CC1
True

Same again, this time with O=C(CN1CCN(c2cc3c(cc2F)c(=O)c(C(=O)O)cn3C2CC2)CC1)N/N=C/c1ccco1
False

Same again, this time with O=[N+]([O-])c1cc(NS(=O)(=O)c2ccccc2)ccc1NS(=O)(=O)c1ccccc1
False

Same again, this time with CCOC(=O)c1ccccc1-c1c2ccc(=[N+](C)C)cc-2oc2cc(N(C)C)ccc12
True

----------
Tested on: U251 CNS
MEASUREMENT_DESCRIPTION: NCI-60 one-dose screen, 48 h
RECORDED_CONDITIONS: 10 µM unless noted
Protocol: Growth inhibition of the U251 human tumor cell line is measured as a screen for anti-cancer activity. Cells are grown in 96 well plates and exposed to the test compound for 48 hours. Compounds are tested at a single concentration, which is 10^-5 M for most compounds. The reported endpoint is percent growth (GI% or GIPRCNT), where numbers from 0 - 100% represent growth inhibition, and numbers from -100% - 0 represent cell death. For example, a value of 40 represents 60% growth inhibition. […]
About 83,000 compounds went through this panel and 20% of them were active in at least one assay; those are over-represented in the sample as a whole. Active and inactive are the calls of the source. The calls were made as follows: active = growth percent below 10; inactive = the rest.
Respond only with the outcome that fits, drawn from Y = active, N = inactive

Look up the recorded call for Cc1ccc(C(=O)Nc2cccc(C#Cc3cccc4[nH]nc(N)c34)c2)cc1C(F)(F)F in this test.
N

----------
Tested on: SK-OV-3 ovarian
MEASUREMENT_DESCRIPTION: NCI-60 one-dose screen, 48 h (100 = growth as untreated, 0 = no growth, -100 = all killed)
RECORDED_CONDITIONS: 10 µM unless noted
This is part of a sample that, as a whole, favours compounds with a hit. Of some 83,000 tested, about 20% had one in any assay. The source made the active and inactive calls. Rule for the calls: active = growth percent below 10; inactive = the rest.
RESULT_TYPE: growth

O=C(N/N=C/c1cc(Cl)ccc1O)c1ccccc1Nc1ccnc(C(F)(F)F)c1: 25% (inactive)
CCCCC#Cc1c(I)n(C)c(=O)[nH]c1=O: 95.5% (inactive)
Cc1ccc(C(=O)c2ccc(CC(=O)NN3C(=O)c4ccccc4C3=O)n2C)cc1: 109% (inactive)

Value sought for every listed compound: growth.
1. CNC(=O)c1cc(Oc2ccc3c(c2)sc2nc(-c4ccc(OC)cc4)cn23)ccn1
2. O=C(Nc1ccccc1N1CCCC1=O)c1oc2ccc(F)cc2c1-c1cnn(-c2ccccc2)c1
3. CC1C=CC(OC(=O)C(C)(O)CCC(O)(C(=O)OC2CC(O)C(C(C)C)CC2(C)O)C(C)C)(C(C)C)CC1 (stereo not drawn)
4. O=C(CCCCCNC(=O)c1cc(=O)c(O)co1)Nc1ccccc1
5. COC(=O)c1ccc(NC(=O)Nc2ccc(C(=O)OC)cc2)cc1
6. CCN1CCN(CC(=O)Nc2nc3ccc(NCc4ccc(F)cc4)cc3s2)CC1
7. COc1cc(-c2nc3sccn3c2-c2ccnc(NCCNS(=O)(=O)c3ccc(Cl)cc3)n2)ccc1F

["16.8% (inactive)", "56.5% [50 µM] (inactive)", "-91.5% [4.63 µM] (active)", "118% (inactive)", "99.3% (inactive)", "105% (inactive)", "54.4% (inactive)"]

Value sought for every listed compound: growth.
1. C/C(=N\O)c1ccc(NC(=O)CSc2nnc(-c3cc(-c4ccc(S(N)(=O)=O)cc4)nc4ccccc34)n2-c2ccccc2)cc1
2. CCNC(=O)Oc1ccc(/C(=C(/CC)Cc2ccccc2)c2ccc(OCCN3CCCC3)cc2)cc1
3. CC(=O)O[C@H]1C[C@@H]2C(C)(C)C(=O)CC[C@@]2(C)c2ccc(C(C)C)cc21
4. CC1CCN(C(=S)SCC(=O)NC(=O)c2ccccc2)CC1
5. Oc1c(CN2CCC(N3CCCCC3)CC2)cc(Cc2cc(CN3CCC(N4CCCCC4)CC3)c(O)c3ncccc23)c2cccnc12

1: 108% (inactive); 2: 88.5% (inactive); 3: 109% (inactive); 4: 104% (inactive); 5: 20.5% (inactive)

Value sought for every listed compound: growth.
1. C=C1C(=O)O[C@H]2[C@H]1CC/C(COC(=O)c1cc3cc(Cl)ccc3[nH]1)=C\CC[C@@]1(C)O[C@@H]21
2. COc1ccc2cc(-c3ccnc4c(N=Nc5ccc(Cl)cc5)c(N)nn34)ccc2c1
3. Cc1c(Cl)cccc1C(=O)Nc1nc2c(s1)CN(C(=O)c1ccc(C(F)(F)F)cc1)CC2
4. Cc1ccc(C=C2C(=O)NC(=O)NC2=O)cc1
5. Cc1nn(-c2ccccc2)c(N)c1N=C1NC(=O)/C(=C/c2ccc(Br)cc2)S1
6. CC1(C)CC2=C3C=C[C@@H]4[C@@]5(C)CCC(=O)C(C)(C)[C@@H]5CC[C@@]4(C)[C@]3(C)CC[C@@]2(C(=O)O)C[C@H]1O
7. CCN1C(=O)N(CC)C2C1NN=c1s/c(=C\c3cnc(C)n3C)c(=O)n12 (stereo not drawn)
8. Cc1ccc(/C=C(\C#N)n2nnc3cc(F)c(F)cc32)cc1

1: 27.6% (inactive); 2: 93.7% (inactive); 3: 36.4% (inactive); 4: 105% (inactive); 5: 84.8% (inactive); 6: 1% (active); 7: 27.9% (inactive); 8: 53.6% (inactive)

Value sought for every listed compound: growth.
1. O=C(/C=C(O)/C=C/c1cccc2[nH]ccc12)/C=C/c1cccc2[nH]ccc12
2. COc1ccc(/C(C)=C(/c2ccc(OCCCN(C)C)cc2)c2ccc(OC(=O)c3ccccc3)cc2)cc1
3. O=C(Nc1ncccc1OCc1ccccc1)NC1CCCCCC1
4. O=C(NC(Cc1nnc2n(Cc3ccccc3)c(=O)c3c4c(sc3n12)CCCC4)c1ccccc1)c1ccccc1 (stereo not drawn)
5. COc1ccc(/C=C/C(c2cc(OC)c(OC)c(OC)c2)n2cncn2)cc1 (stereo not drawn)
6. C=C(c1ccc(OC)c(/C=C/C(=O)c2ccc3c(c2)OCO3)c1)c1cc(OC)c(OC)c(OC)c1
7. CN1CCN(C(=S)SCCCCOc2cc(=O)oc3ccccc23)CC1
8. COC(=O)c1c2c(n3ccccc13)C(=O)c1ccccc1C2=O

1. 85.6% (inactive)
2. 90.8% (inactive)
3. 110% (inactive)
4. 110% (inactive)
5. 35.5% (inactive)
6. 27.4% (inactive)
7. 99.5% (inactive)
8. 94.8% (inactive)

Value sought for every listed compound: growth.
1. CN1C(=O)/C(=C2\SC(=Nc3ccccc3)N(Nc3ccccc3)C2=O)c2ccccc21
2. Cc1ccc(C)c(/C=C2\CN(C(=O)OC(C)(C)C)C/C(=C\c3cc(C)ccc3C)C2=O)c1
3. NC(=O)c1cccc([C@@H]2O[C@H](CO)[C@@H](O)[C@H]2O)c1
4. CN(C)CCCC1(c2ccc(F)cc2)OCc2cc(-c3ccc4cc[nH]c4c3)ccc21 (stereo not drawn)

1: 98% (inactive); 2: 87.7% (inactive); 3: 28.7% (inactive); 4: 90.2% (inactive)

Value sought for every listed compound: growth.
1. Cc1ccc(C(=O)Nc2cccc(C#Cc3cccc4[nH]nc(N)c34)c2)cc1C(F)(F)F
2. Cc1ccc2nc(-c3ccc(C(=O)NNC(=S)Nc4ccccc4)cc3)[nH]c2c1
3. CN(C)CCCC1(c2ccc(F)cc2)OCc2cc(-c3cc4ccccc4s3)ccc21 (stereo not drawn)

1: 84.3% (inactive); 2: 98.3% (inactive); 3: 68% (inactive)
